# EXPERIMENT SUMMARY: CREB reporter modulators under forskolin, primary screen, cell-based, PC12, CRE-LacZ reporter, forskolin-stimulated (AID 1146);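 further: PC12 cells with 6xCRE LacZ reporter stimulated by forskolin 10 µM; beta-galactosidase reporter signal reflecting CREB driven transcription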
# MEASUREMENT CONDITIONS: luminescence, 4.5 h, higher = more signal, called active from +8 up or from −8 down
Rule: z-score of -0.3 or more gives Met; anything lower gives Not met.

-- ask Quick check, z-score >= -0.3? COC(=O)[C@H]1N=C(c2ccc(OCCCO)cc2)O[C@H]1c1ccccc1N=[N+]=[N-]
-- reply Met

-- ask Next up: C[N+](C)(C)CCCC[C@@H]1NC(=O)[C@H]2C[C@@H](C(=O)O)[C@@H](c3ccc(O)cc3)N2C1=O
-- reply Not met

-- ask Next up: C#CCN(C(=O)OC(C)(C)C)[C@H](CO)c1ccccc1
-- reply Not met

-- ask Next up: O=C1C[C@@](C(=O)NCC(F)(F)F)(c2ccc([N+](=O)[O-])cc2)[C@@H](c2ccc(CO)cc2I)N1CC12CC3CC(CC(C3)C1)C2
-- reply Not met

-- ask Next up: [N-]=[N+]=NCc1ccccc1C[C@@]1(C(=O)NCCN2CCOCC2)N=C(c2ccc(OCCCO)cc2)O[C@@H]1c1ccccc1
-- reply Met
